Test system: LOC_OS05G07850-cb002;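 note: purified Escherichia coli-expressed rice kinase domain construct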
test details: thermal shift delta Tm vs DMSO control; higher = stronger stabilization (binding)
condition description: 12.5 µM; protein concentration 2 µM
Consider the following compounds and their measured thermal shift delta Tm readings.
I'd appreciate it if you included the unit after the number.

Sample answers from the record:
Clc1ccc(C2(c3ccc(-c4cn[nH]c4)cc3)CCNCC2)cc1; 1.23 °C
CCCCCCCCCCCCCCCCCCOP(=O)([O-])OC1CC[N+](C)(C)CC1 [Perifosine (KRX-0401)]; -0.07 °C
COc1cc(N2CCC(N)CC2)ccc1Nc1ncc(Cl)c(-c2c[nH]c3ccccc23)n1; 13.4 °C
Nc1nc2cc(-c3ccc4ncc(C(=O)N5CCOCC5)n4c3)ccc2o1 [Serabelisib (INK-1117,MLN-1117,TAK-117)]; 2.64 °C
CC(C)n1nc(-c2ccc3oc(N)nc3c2)c2c(N)ncnc21; 7.34 °C
CC(C)(C)c1nc(-c2ccc(NC(=O)Nc3cccc(C(F)(F)F)c3)c3ccccc23)c2c(N)nccn12 [kira6]; 6.62 °C

What value of thermal shift delta Tm has been recorded for this entry: CCc1ccc(/C=C2/SC(=S)NC2=O)cc1
2.65 °C

Given COc1ccc(-c2cc3c(C)nc(N)nc3n([C@H]3CC[C@H](OCCO)CC3)c2=O)cn1 , state its recorded thermal shift delta Tm.
0.06 °C

Query: thermal shift delta Tm; subject: COc1cc2ncnc(Nc3cccc(Cl)c3)c2cc1OC [AG-1478 (Tyrphostin AG-1478)]
10.9 °C
